Let's look at some molecules and their measured Cmax.
Assay details: Pharmacokinetic experiment in SD rats
Format: in vivo
Cond: male, Sprague-Dawley (SD), rat, po, 25 mg/kg by gavage, plasma
State the answer as a number, implicitly in ng/mL.

Query block: Recorded Cmax for "CON=C(C)C(=O)N1CCC(Nc2cc(C(=O)NC[C@H](O)CN3CCc4ccccc4C3)ncn2)CC1" , please?
Result block: 2370

Please find the next molecule below.
Query block: Which Cmax is reported for this molecule? CC(=O)N1CCC(Nc2cc(C(=O)NC[C@H](O)CN3CCc4ccccc4C3)ncn2)CC1 [GSK3326595, reference compound]
Result block: 60.3
